Test system: Escherichia coli TOP10;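 also: peptides expressed intracellularly from a pBAD plasmid library in pooled LB shake-flask culture, induced with 0.3% L-arabinose, DNA abundance read by NGS, three biological replicates, DESeq2 with apeglm shrinkage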
test_details: shrunken log2 fold change of peptide-encoding DNA abundance (4.5 h post-induction vs induction); higher = less antimicrobial activity (less host growth inhibition)
details: time post-induction: 4.5 h; library: site-saturation at positions 5, 18, 19, 20
Measured shrunken log2 fold change by item
measured_property: shrunken log2 fold change

* RRIRMRPPRLPRPRPRPQLNPRP | 0.158
* RRIRWRPPRLPRPRPRPHPNPRP | -0.0793
* RRIRFRPPRLPRPRPRPSASPRP | 0.0552
* RRIRNRPPRLPRPRPRPAQGPRP | 0.279
* RRIRCRPPRLPRPRPRPKNAPRP | -0.103
* RRIRYRPPRLPRPRPRPHPIPRP | -0.0356
* RRIRNRPPRLPRPRPRPVMPPRP | 0.267
* RRIRVRPPRLPRPRPRPFESPRP | -0.0298

Sourced from the supplement of paper PMC9112550
